# procedure-text: Inhibition of IL-1-beta-induced MEK phosphorylation in primary human monocytes by immunoblot analysis
# Type: cell-based
measured-parameter: pIC50
// field semantics: pIC50 = negative decimal log of concentration (mol/L)

Ask: Report pIC50, nothing else, for this compound: N#Cc1cnc2c(Cl)cc(NCc3cnc[nH]3)cc2c1Nc1ccc(F)c(Cl)c1
Result: 6.30

* * *

# procedure-text: Inhibition of IL-1-beta-stimulated PGE2 production in human RA-FLS cells by immunoblot analysis
# Assay type: functional, cell-based
measured-parameter: pIC50
// field semantics: pIC50 = negative decimal log of concentration (mol/L)

Ask: Report pIC50, nothing else, for this molecule: N#Cc1cnc2c(Cl)cc(NCc3cnc[nH]3)cc2c1Nc1ccc(F)c(Cl)c1
Result: 6.40
